These entries and their values trace back to patent US20130136748A1.

tested system: T1, human HER3-Fc (R&D Systems, 348-RB) (human, UniProt P21860 20-643)
T1 construct: Bought; also called hHER3-Fc; Fc-HER3; Fc part of the bought chimera not given, not described
protocol: 18G11 competition alphascreen, periplasmic extract
Items are presented alongside their recorded % inhibition.
Numeric answer only, unit % assumed.

Sample answers from the record:
Looking up HER3MS00070 (VHH, 18G11 M99I) VHH: EVQLVESGGGLVQPGGSLRLSCAASGTLFKINAMGWYRQAPGKRRELVALITSSDTTDYAESVEGRFTISRDNTWNAVYLQMNSLKPEDTAVYYCHSDHYSIGVPEKRVIMYGQGTLVTVSS , I see its % inhibition listed as 82.2

Looking up HER3MS00071 (VHH, 18G11 M99V) VHH: EVQLVESGGGLVQPGGSLRLSCAASGTLFKINAMGWYRQAPGKRRELVALITSSDTTDYAESVEGRFTISRDNTWNAVYLQMNSLKPEDTAVYYCHSDHYSVGVPEKRVIMYGQGTLVTVSS , I see its % inhibition listed as 80.9

Would you kindly look at the next entry?
Looking up HER3MS00074 (VHH, 18G11 M102E) VHH: EVQLVESGGGLVQPGGSLRLSCAASGTLFKINAMGWYRQAPGKRRELVALITSSDTTDYAESVEGRFTISRDNTWNAVYLQMNSLKPEDTAVYYCHSDHYSMGVPEKRVIEYGQGTLVTVSS , I see its % inhibition listed as 82.7
